- Tested on: Chikungunya virus (CHIKV)
- Measurement Notes: microbe, parasite or virus in culture
- Assay type: cell-based
- Details: Chikungunya virus, Vero, 48 h, read-out: Percent viral inhibition CHKV
Attribute Measured: inhibition at 1 µM (%)
Give bare numbers, in %.

Below: 3 compounds and their reported inhibition at 1 µM.
Compound: CN1CCN(c2ncc(Oc3cc(CN4CCC(CC(N)=O)CC4)cc(-c4cc(Cl)cc(Cl)c4)n3)cn2)CC1
Value Units: %
Observed: 15.4

Compound: CN1CCN(c2ncc(Oc3cc(CN4CCC5(CC4)CN(C(=O)CO)C5)cc(-c4cc(Cl)cc(Cl)c4)n3)cn2)CC1
Value Units: %
Observed: 12.8

Compound: CC(=O)NCC1CCN(Cc2cc(Oc3ccc(N4C[C@@H]5C[C@H]4CN5CCS(C)(=O)=O)nc3)nc(-c3cc(Cl)cc(Cl)c3)c2)CC1
Value Units: %
Observed: 16.4

Below are some compounds; for each one, tell me its inhibition at 1 µM.
1. O=C(O)CC1CCN(Cc2cc(Oc3cnc(N4CCN(CCF)CC4)nc3)nc(-c3cc(Cl)cc(Cl)c3)c2)CC1
2. CN1CCN(c2ncc(Oc3cc(-c4cc(Cl)cc(Cl)c4)cc(CN4CCC(CC(=O)O)CC4)c3F)cn2)CC1

Result:
1. 39.8
2. 13.5

Below are some compounds; for each one, tell me its inhibition at 1 µM.
1. COCCN1CCN(c2ncc(Oc3cc(CN4CCC(CNC(C)=O)CC4)cc(-c4cc(Cl)cc(Cl)c4)n3)cn2)CC1
2. CC(=O)NCC1CCN(Cc2cc(Oc3ccc(N4CCN(CCCS(C)(=O)=O)CC4)nc3)nc(-c3cc(Cl)cc(Cl)c3)c2)CC1
3. CN1CCN(c2ncc(Oc3cc(CN4CCC(CCO)CC4)cc(-c4cc(Cl)cc(Cl)c4)n3)cn2)CC1

Result:
1. 24.1
2. 0
3. 26.3

Just for reference, patent US20230011571A1 is where these values come from.
